System: HCC1937
Assay: Antiproliferative activity against human HCC1937 cells after 7 days by resazurin reduction assay
Details: HCC1937, 168 h
Reported metric: IC50
Note: a bare number is incomplete; add the unit.

QUERY: Annotate the compound COc1ccc(C(=O)C(=O)c2c(-c3ccc(OC)cc3)nc(NC(=O)CN3CCc4cc(OC)c(OC)cc4C3)n2C)cc1 with its measured IC50.
RESULT: 17.8 µM

Where do the numbers come from? From ChEMBL document CHEMBL5113454.
